These entries and their values trace back to PubChem BioAssay AID686978.

# METHOD_SUMMARY: qHTS for Inhibitors of human tyrosyl-DNA phosphodiesterase 1 (TDP1): qHTS in cells in absence of CPT; also: nearly all actives have a fitted effect of over 55% in size; also: potency is read from the fitted curve at half-maximal effect
# ASSAY_CONDITIONS: DT40 Tdp1-/- hTDP1 cells, no CPT, ATP luminescence, 48 h
About 64,000 (15%) of roughly 420,000 compounds were called active. Another 27% or so got no clear call; they are omitted. Only a sample is shown.
PARAMETER: Potency

# count of solved cases: 5
COMPOUND	PARAMETER	ENDPOINT_RESULT
CC(C)n1cnc2c(Nc3cccc(Cl)c3)nc(N(CCO)CCCO)nc21	Potency	14.6 µM (active)
Cc1cc([N+](=O)[O-])nn1CCCC(=O)Nc1cccnc1Cl	Potency	inactive
C=CCn1c2c(c3ccccc31)CCC2	Potency	inactive
O=C(c1ccco1)n1nc(-c2ccc(Cl)cc2)nc1NCc1ccccc1	Potency	18.4 µM (active)
O=C(OCC(=O)N1CCCCCC1)c1cnc(Cl)c(Cl)c1	Potency	inactive

Entry CSCC(=O)N1CCCC(C(=O)c2cc(F)ccc2F)C1 (centres undefined) — recorded Potency = inactive

Entry COc1cccc(C(=O)NNC(=O)c2cccc(F)c2)c1 — recorded Potency = inactive

Entry Cc1nnc2n1N=C(c1ccccc1)CS2 — recorded Potency = inactive

Entry COc1ccc(-n2cnc3cc(C(=O)NC4CCCC4)ccc32)cc1 — recorded Potency = inactive

###

# METHOD_SUMMARY: qHTS for Inhibitors of human tyrosyl-DNA phosphodiesterase 1 (TDP1): qHTS in cells in absence of CPT; also: nearly all actives have a fitted effect of over 55% in size
# ASSAY_CONDITIONS: DT40 Tdp1-/- hTDP1 cells, no CPT, ATP luminescence, 48 h
In all, about 420,000 compounds went through this assay and about 64,000 (15%) were called active. Roughly 27% stayed inconclusive and do not appear here. Calls follow the shape of the dose curve; as a rule, active = well fitted inhibition curve with a large enough effect; inconclusive = small, poorly fitted or top-dose-only effect; inactive = flat fitted curve, though single readings scatter. Not all results are given here.
I would appreciate it if you answered using one of these outcomes: Yes (active), No (inactive)

// below: answered compounds
COMPOUND	ANSWER_LABEL
Cc1c(C(=O)Nc2cccc(Cl)c2)cn2c(nc3ccccc32)c1C#N	Yes
Cn1cc(S(=O)(=O)NC(c2ccccc2)c2ccccc2)c(=O)n(C)c1=O	No
O=c1[nH]c(-c2cccs2)nc2ccccc12	No
CC(C)OC(=O)c1cc(NC(=O)C2C3CCC(O3)C2C(=O)O)cc(C(=O)OC(C)C)c1 (centres undefined)	No
Cc1ccccc1OCCC(=O)Nc1c(C)n(C)n(-c2ccccc2)c1=O	No
CC(Oc1ccc(Cl)cc1)c1ccnn1S(C)(=O)=O (centres undefined)	No
CCOC(=O)c1[nH]c2c(c1-c1ccccc1)C(=O)CC(c1ccc(Cl)cc1)C2 (centres undefined)	No
Brc1ccc(-c2nnc(-c3ccccc3)o2)o1	No

Outcome? CCOC(=O)Cn1c(=O)oc2cc(S(=O)(=O)NCC3CCCO3)ccc21 (centres undefined)
No

Outcome? CCc1ccc(C2CC(=O)c3c([nH]c(C(=O)OCc4ccc(C)cc4)c3C)C2)cc1 (centres undefined)
Yes

Outcome? CCOc1ccc(C2CC(=O)c3c([nH]c(C(=O)OCc4ccccc4)c3C)C2)cc1 (centres undefined)
Yes

Outcome? CCOC(=O)c1[nH]c2c(c1C)C(=O)CC(c1ccc(N(C)C)cc1)C2 (centres undefined)
Yes

Outcome? Cn1nc(C(C)(C)C)c(NC(=O)c2sccc2Cl)c1C(C)(C)C
No

Outcome? CN(C)CCCn1c(SCCN2C(=O)c3ccccc3C2=O)nc2ccccc2c1=O
No
